target: CDK7/cyclinH/MAT1 trimeric complex (Homo sapiens); experiment: In vitro CDK7 assay, potency of irreversible covalent inhibitors (kinact/KI), coupled PK/LDH ADP readout at 340 nm; details: CDK7 (20 nM enz.) (KI, μM), 20 nM enzyme
Sequence (P50613 whole entry): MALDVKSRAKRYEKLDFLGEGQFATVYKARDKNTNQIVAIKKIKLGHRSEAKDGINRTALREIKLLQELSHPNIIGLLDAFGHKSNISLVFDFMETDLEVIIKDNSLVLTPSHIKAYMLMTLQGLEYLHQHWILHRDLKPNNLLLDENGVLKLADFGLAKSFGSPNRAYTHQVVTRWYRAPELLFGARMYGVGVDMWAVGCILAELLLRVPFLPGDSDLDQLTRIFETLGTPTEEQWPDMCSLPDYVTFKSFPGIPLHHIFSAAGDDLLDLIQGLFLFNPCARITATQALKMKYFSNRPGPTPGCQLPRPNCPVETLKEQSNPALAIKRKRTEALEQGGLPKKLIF
Sequence (P51946 whole entry partner): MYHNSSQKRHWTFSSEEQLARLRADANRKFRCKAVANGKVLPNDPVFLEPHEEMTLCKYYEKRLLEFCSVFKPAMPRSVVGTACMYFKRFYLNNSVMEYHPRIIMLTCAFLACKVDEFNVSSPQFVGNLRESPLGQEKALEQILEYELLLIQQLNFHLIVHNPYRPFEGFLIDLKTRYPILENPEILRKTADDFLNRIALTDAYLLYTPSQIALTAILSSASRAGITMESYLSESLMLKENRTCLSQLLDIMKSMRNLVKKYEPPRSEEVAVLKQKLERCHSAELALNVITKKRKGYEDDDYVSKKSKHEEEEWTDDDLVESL
Sequence (P51948 whole entry partner): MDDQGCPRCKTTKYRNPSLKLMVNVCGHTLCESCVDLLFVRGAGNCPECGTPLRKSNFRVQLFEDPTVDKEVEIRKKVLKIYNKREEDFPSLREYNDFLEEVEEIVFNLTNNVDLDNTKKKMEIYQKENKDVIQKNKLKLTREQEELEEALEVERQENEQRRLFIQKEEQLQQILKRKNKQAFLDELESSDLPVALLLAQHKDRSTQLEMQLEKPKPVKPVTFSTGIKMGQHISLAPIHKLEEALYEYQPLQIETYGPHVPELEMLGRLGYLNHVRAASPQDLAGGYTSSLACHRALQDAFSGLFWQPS
quantity-measured: Ki (µM)

These solved cases illustrate the format of a correct answer.
compound	observed-result
C=CC(=O)N1CCC(N2CCC(c3cc4c(c(C)n3)OCc3c(N5CCOCC5)ccnc3N4)CC2)CC1 [compound 324]	0.0237
C=CC(=O)N1CC(N2CC(c3cc4c(c(C#N)n3)OCc3c(C5CCOCC5)ccnc3N4)C2)C1 [Compound 339]	0.0746
CC#CC(=O)N1CC(N2CC(c3cc4c(c(C)n3)O[C@H](C)c3c(N5CCOCC5)ccnc3N4)C2)C1 (single isomer, unassigned) [compound 444]	0.186

a. C=CC(=O)N1CC(N2CCC(c3cc4c(c(C)n3)OCc3c(N5CCOCC5)ccnc3N4)CC2)C1 [Compound 173]
b. C=CC(=O)N1CC(N2CCC(c3cc4c(c(C#N)n3)OCc3c(-c5cnn(C)c5)ccnc3N4)CC2)C1 [Compound 298]
c. C=CC(=O)N1CC[C@H](N2CC(c3cc4c(c(C)n3)O[C@@H](C)c3c(N5CCOCC5)ccnc3N4)C2)C1 (single isomer, unassigned) [Compound 458]
d. CC#CC(=O)N1CC(N2CC[C@@H](c3cc4c(c(C)n3)O[C@@H](C)c3c(N5CCOCC5)ccnc3N4)C2)C1 (single isomer, unassigned) [Compound 328]
Arrange items by their Ki values in increasing order. Your reply should list the labels following the order given in the request.
b, a, d, c
(b: 0.0311 µM, a: 0.0574 µM, d: 0.472 µM, c: 19.2 µM)
